# Test system: RAW264.7
# assay_remarks: Induction of apoptosis in mouse RAW264.7 cells assessed as late apoptotic cells at 100 nM after 16 hrs using annexin V-propidium iodide staining by flow cytometry
# Type: cell-based
# condition_set: raw264.7, 16 h, 0.1 µM
recorded_endpoint: Activity (%)
Please reply with the bare figure in % and do not write the unit itself.

# get_value(readout='Activity', item= `CO/C1=C\C(C)=C\[C@@H](C)[C@@H](O)[C@@H](C)C/C(C)=C/C=C/[C@H](OC)[C@@H]([C@@H](C)[C@@H](O)[C@H](C)[C@@]2(O)C[C@@H](O)[C@H](C)[C@@H](C(C)C)O2)OC1=O` ) 31.5
